Ref: paper PMC12105011

# assay_comment: Metabolic stability, mouse liver microsomes
# Type: in vitro ADME
# test_context: mouse, liver microsomes, pH 7.4, mouse liver microsomes, not corrected for microsomal binding; read-out: LM CLint,app mouse
Quick list: CLint scaled at 1 µM per entry.

COc1cc2c(cc1OCc1ccccc1)N(c1ccncc1)CC21CCN(C)CC1 ... < 2.74 L/h/kg

Would you mind telling me what CLint scaled at 1 µM value was observed for COc1cc2c(cc1OCc1ccccc1)N(C(=O)c1cc3ccccc3[nH]1)CC21CCNCC1 ?
< 3.28 L/h/kg

###

# assay_comment: Pharmacokinetics in the NSG mouse model of P. falciparum infection
# Assay type: in vivo
# test_context: NSG (NOD-scid IL-2Rγnull), single oral dose 35 mg/kg, whole blood, mean (SD)
# Method: A non-compartmental analysis was performed for the determination of the pharmacokinetic parameters using PK Solutions v2.0 (Summit Research Services). O. In vivo antimalarial efficacy studies with P. falciparum conducted at H3D Prior to animal studies being carried out, the research protocol was evaluated and approved by the Animal Ethics Committee at the University of Cape Town (AEC017_025). […] The whole blood concentrations of the 50 were determined using a quantitative LC-MS/MS method. […]
test_readout: Cmax
Kindly report the value followed by its unit.

Would you mind telling me what Cmax value was observed for COc1cc2c(cc1OCc1ccccc1)N(c1ccncc1)CC21CCN(C)CC1 [Compound 50] ?
350 nM

###

Quick list: log10 solubility at 20 h per entry.
# assay_comment: Aqueous solubility assay, miniaturized shake flask
# Assay type: physicochemical
# test_context: pH 6.5, Aqueous solubility PBS pH 6.5
Parameter value (number): base-10 log of solubility at 20 h in µM.

COc1cc2c(cc1Oc1cccc(S(=O)(=O)N(C)C)c1)N(C(=O)c1cc3ccccc3[nH]1)CC21CCN(C)CC1 [Compound 32] ... 1.00
COc1cc2c(cc1OCc1ccccc1F)N(C(=O)c1cc3ccccc3[nH]1)CC21CCN(C)CC1 [Compound 37] ... 2.10
COc1cc2c(cc1OCc1ccc(F)cc1)N(C(=O)c1cc3ccccc3[nH]1)CC21CCN(C)CC1 [Compound 35] ... 1.48

Would you mind telling me what log10 solubility at 20 h value was observed for COc1cc2c(cc1OCc1ccccc1)N(C(=O)c1ccc[nH]1)CC21CCN(C)CC1 [Compound 25] ?
2.27

Request: COc1cc2c(cc1OCc1ccccc1)N(C(=O)[C@H](N)Cc1ccccc1)CC21CCN(C)CC1 [Compound 47]
2.24

Request: COc1cc2c(cc1CCc1ccccc1)N(C(=O)c1cc3ccccc3[nH]1)CC21CCNCC1 [Compound 30]
1.00

Request: COc1cc2c(cc1OCc1cc(C)on1)N(C(=O)c1cc3ccccc3[nH]1)CC21CCN(C)CC1 [Compound 33]
1.70

Request: COc1cc2c(cc1Oc1ccccc1)N(C(=O)c1cc3ccccc3[nH]1)CC21CCN(C)CC1 [Compound 31]
1.88

Request: COc1cc2c(cc1OCc1ccccc1)N(C(=O)c1cc3ccccc3[nH]1)CC21CCN(C)CC1 [Compound 2]
1.48

Request: COc1cc2c(cc1OCc1ccccc1)N(Cc1cc3ccccc3[nH]1)CC21CCN(C)CC1 [Compound 24]
0.70

###

# assay_comment: Metabolic stability, mouse liver microsomes
# Type: in vitro ADME
# test_context: CSV, order h/r/m as in the tables
Quick list: Microsomal Stability, third value (mouse) per entry.

// worked examples, Microsomal Stability, third value (mouse) included
COc1cc2c(cc1OCc1ccccc1)N(c1ccncc1)CC21CCN(C)CC1 [Compound 50] ... < 45.7
COc1ccc2[nH]c(C(=O)N3CC4(CCN(C)CC4)c4cc(OC)c(OCc5ccccc5)cc43)cc2c1 [Compound 42] ... 248
COc1cc2c(cc1OCc1ccccc1)N(C(=O)c1cc3ccccc3[nH]1)CC21CCNCC1 [Compound 11] ... < 54.7
COc1cc2c(cc1OCc1ccccc1)N(C(=O)[C@H](N)Cc1ccccc1)CC21CCN(C)CC1 [Compound 47] ... 156

Would you mind telling me what Microsomal Stability, third value (mouse) value was observed for COc1cc2c(cc1OCc1ccccc1)N(C(=O)[C@@H](N)Cc1ccccc1)CC21CCN(C)CC1 [Compound 48] ?
46.9
